# target: Human LPA3 (Homo sapiens, UniProt Q9UBY5)
# Construct: The full-length cDNA fragment for human LPA3 was obtained by PCR from the vector; cDNA from the Missouri S&T cDNA Resource Center
# Sequence (Q9UBY5 1-353): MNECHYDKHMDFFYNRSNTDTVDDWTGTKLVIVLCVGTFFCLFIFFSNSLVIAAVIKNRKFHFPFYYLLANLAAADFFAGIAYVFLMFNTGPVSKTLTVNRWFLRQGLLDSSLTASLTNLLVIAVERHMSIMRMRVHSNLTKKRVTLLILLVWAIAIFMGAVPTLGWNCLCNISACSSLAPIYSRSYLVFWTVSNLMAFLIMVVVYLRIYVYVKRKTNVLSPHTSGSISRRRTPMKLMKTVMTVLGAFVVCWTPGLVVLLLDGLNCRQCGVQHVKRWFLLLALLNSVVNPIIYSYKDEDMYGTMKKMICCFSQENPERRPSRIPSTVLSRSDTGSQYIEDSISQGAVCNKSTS
# assay remarks: LPA3 calcium flux assay
# run conditions: CHO cells expressing human LPA3, 10 nM LPA; read-out: HLPA3 Ca Flux IC50
# Description: A vector containing the human LPA3 receptor cDNA was obtained from the Missouri S&T cDNA Resource Center (www.cdna.org). The full-length cDNA fragment for human LPA3 was obtained by PCR from the vector. The nucleotide sequence of the cloned human LPA3 was determined by sequencing and confirmed to be identical to the published human LPA3 sequence (NCBI accession number NM_012152). […]
pIC50: −log10 of the molar value.
recorded metric: pIC50

### Prompt Value lookup for pIC50; key = COc1cccc([C@@H](C)OC(=O)Nc2c(C)noc2-c2ccc(-c3ccc(C4(C(=O)O)CC4)cc3)cc2)c1
### Response 5.00 to 6.00

### Prompt What pIC50 value was documented for this molecule, Cc1noc(-c2ccc(-c3ccc(C4(C(=O)NS(C)(=O)=O)CC4)cc3)cc2)c1NC(=O)O[C@H](C)c1cccc(C(F)(F)F)c1 ?
### Response 6.00 to 6.52

### Prompt Consider the molecule shown here: Cc1noc(-c2ccc(-c3ccc(C4(C(=O)O)CC4)cc3)cc2)c1NC(=O)OC(C)c1cccc(O)c1 (stereo not shown) What is its recorded pIC50?
### Response < 5.00

### Prompt For Cc1noc(-c2ccc(-c3ccc(C4(C(=O)O)CC4)cc3)cc2)c1NC(=O)O[C@@H](C)c1ccccc1 , what is its reported pIC50?
### Response < 5.00
